Biological target: recombinant human ACC1 (rhACC1) (Homo sapiens (Human))
Experiment: Transcreener ADP detection FP assay, direct inhibition of rhACC1
Conditions: Geomean IC50, n ≥ 2 unless * then n = 1; 50 μM ATP, 30 μM acetyl-CoA
pIC50: −log10 of the molar value.
# pIC50 per entry
value-type: pIC50

• COc1cc(C(=O)N2CCC3(CC2)CC(=O)c2nc(C4(C)CC4)sc2C3)cc2c(C)nn(C)c12 = 8.35
• COc1cc(C(=O)N2CCC3(CC2)CC(=O)c2nc(C(C)(C)C)sc2C3)c2[nH]ncc2c1 = 7.75
• CSc1cnc2c(C)cc(C(=O)N3CCC4(CC3)CC(=O)c3nc(C(C)(C)C)sc3C4)cc2c1 = 8.44
• Cc1c(O)c(C(=O)N2CCC3(CC2)CC(=O)c2nc(C(C)(C)C)sc2C3)cc2ccccc12 = 8.15
• COc1cc(C(=O)N2CCC3(CC2)CC(=O)c2nc(C(C)(C)C)sc2C3)cc2c1ccn2C = 7.95
• CCc1cnc2c(OC)cc(C(=O)N3CCC4(CC3)CC(=O)c3nc(C(C)(C)C)sc3C4)cc2c1 = 7.47
• COc1cc(C(=O)N2CCC3(CC2)CC(=O)c2nc(C(C)(C)C)sc2C3)cc2cc(C3CC3)cnc12 = 8.17
• COc1cc(C(=O)N2CCC3(CC2)CC(=O)c2nc(C(C)(C)C)sc2C3)cc2c(C)ccnc12 = 7.33
• CC(C)(C)c1nc2c(s1)CC1(CCN(C(=O)c3ccc(Cl)c4cc[nH]c34)CC1)CC2=O = 8.20
• Cc1n[nH]c2c(C)cc(C(=O)N3CCC4(CC3)CC(=O)c3nc(C(C)(C)C)sc3C4)cc12 = 8.12
• Cc1n[nH]c2c(C)cc(C(=O)N3CCC4(CC3)CC(=O)c3nc(C(C)(C)C(C)C)sc3C4)cc12 = 8.10
• CNc1ccc2c(C)cc(C(=O)N3CCC4(CC3)CC(=O)c3nc(C(C)(C)C)sc3C4)cc2n1 = 8.31
• CC(C)(C)Nc1ccc2ccc(C(=O)N3CCC4(CC3)CC(=O)c3nc(C(C)(C)C)sc3C4)cc2n1 = 8.34
• Cc1cnc(C)c2cc(C(=O)N3CCC4(CC3)CC(=O)c3nc(C(C)(C)C)sc3C4)ccc12 = 7.53
• Cc1cc(C(=O)N2CCC3(CC2)CC(=O)c2nc(C(C)(C)C)sc2C3)c(O)c2ccccc12 = 8.62
• Cc1cc(C(=O)N2CCC3(CC2)CC(=O)c2nc(C(C)(C)C)sc2C3)cc2c(C3CC3)nccc12 = 8.18
• CC(C)(C)c1nc2c(s1)CC1(CCN(C(=O)c3cc(Cl)c4cc[nH]c4c3)CC1)CC2=O = 8.12
• Cc1cc(C(=O)N2CCC3(CC2)CC(=O)c2nc(C(C)(C)C)sc2C3)cc2c1ccn2C = 8.21
• COc1cc(C(=O)N2CCC3(CC2)CC(=O)c2nc(C(C)C)sc2C3)cc2c(C)nn(C)c12 = 8.00
• CN(C)c1cc(C(=O)N2CCC3(CC2)CC(=O)c2nc(C(C)(C)C)sc2C3)cc(-c2ccccc2)n1 = 8.41
• COc1cccc2cc(C(=O)N3CCC4(CC3)CC(=O)c3nc(C(C)(C)C)sc3C4)[nH]c12 = 7.56
• Cc1cc(C(=O)N2CCC3(CC2)CC(=O)c2nc(C(C)(C)C)sc2C3)cc2ccn(C)c12 = 7.18
